target: SIRT2 recombinant protein (Homo sapiens (Human), UniProt Q8IXJ6); assay: In vitro activity screening of SIRT2 inhibitors (fluorogenic Ac-Gln-Pro-Lys-[Lys-(Ac)]-AMC peptide deacetylation assay); settings: recombinant SIRT2 1.0 μg, 500 μM NAD+, 50 μM substrate peptide, 37° C. 2 hours
Sequence (Q8IXJ6 whole entry): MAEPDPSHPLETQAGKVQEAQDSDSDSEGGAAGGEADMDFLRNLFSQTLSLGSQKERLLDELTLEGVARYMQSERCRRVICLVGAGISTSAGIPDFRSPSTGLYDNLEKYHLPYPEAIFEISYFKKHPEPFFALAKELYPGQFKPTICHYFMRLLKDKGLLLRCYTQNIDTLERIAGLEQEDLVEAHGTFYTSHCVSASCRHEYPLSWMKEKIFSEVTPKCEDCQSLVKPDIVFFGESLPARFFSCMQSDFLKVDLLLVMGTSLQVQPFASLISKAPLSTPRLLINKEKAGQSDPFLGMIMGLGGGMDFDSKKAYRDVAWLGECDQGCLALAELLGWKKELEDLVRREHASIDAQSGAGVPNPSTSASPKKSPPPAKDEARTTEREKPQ
Binarize IC50 at 0.7 µM; below is y, at or above is n.

For orientation, consider the following solved cases.
IN: For this molecule, is IC50 lower than 0.7 µM? Cc1ccc(NS(=O)(=O)c2cc(NC(=O)c3cccc4ccc(=O)oc34)ccn2)cc1
OUT: y

IN: For this molecule, is IC50 lower than 0.7 µM? N#Cc1ccccc1NS(=O)(=O)c1cc(NC(=O)c2cccc3ccc(=O)oc23)ccn1
OUT: n

IN: For this molecule, is IC50 lower than 0.7 µM? O=C(Nc1ccnc(S(=O)(=O)Nc2cccc(Cl)c2)c1)c1cccc2ccc(=O)oc12
OUT: y

IN: For this molecule, is IC50 lower than 0.7 µM? O=C(Nc1ccnc(S(=O)(=O)Nc2ccc(F)c(F)c2)c1)c1cccc2ccc(=O)oc12
OUT: y

IN: For this molecule, is IC50 lower than 0.7 µM? O=C(Nc1ccnc(S(=O)(=O)Nc2ccc(F)cc2)c1)c1cccc2ccc(=O)oc12
OUT: y

Others:
IN: For this molecule, is IC50 lower than 0.7 µM? O=C(Nc1ccnc(S(=O)(=O)Nc2ccc(Cl)cc2)c1)c1cccc2ccc(=O)oc12
OUT: y

IN: For this molecule, is IC50 lower than 0.7 µM? O=C(Nc1ccnc(S(=O)(=O)Nc2ccc(O)cc2)c1)c1cccc2ccc(=O)oc12
OUT: n

IN: For this molecule, is IC50 lower than 0.7 µM? O=C(Nc1ccnc(S(=O)(=O)Nc2cccc3ccc(Br)cc23)c1)c1cccc2ccc(=O)oc12
OUT: y

IN: For this molecule, is IC50 lower than 0.7 µM? O=C(Nc1ccnc(S(=O)(=O)Nc2ccccc2Cl)c1)c1cccc2ccc(=O)oc12
OUT: n

IN: For this molecule, is IC50 lower than 0.7 µM? CS(=O)(=O)c1ccc(NS(=O)(=O)c2cc(NC(=O)c3cccc4ccc(=O)oc34)ccn2)cc1
OUT: n

IN: For this molecule, is IC50 lower than 0.7 µM? O=C(Nc1ccnc(S(=O)(=O)Nc2cccc([N+](=O)[O-])c2)c1)c1cccc2ccc(=O)oc12
OUT: y

###

assay: Cytotoxicity assay for neuroblastoma cell SH-SY5Y (AlamarBlue); format: cell-based; settings: human, SH-SY5Y neuroblastoma cells, 48 hours incubation
Measured property: CC50 at 48 h
Write the figure, then the unit, nothing else.

IN: Which CC50 at 48 h value belongs to CC(=O)O[C@H]1C(=O)[C@@]2(C)[C@H]([C@H](OC(=O)c3ccccc3)[C@]3(O)C[C@H](OC(=O)[C@H](O)[C@@H](NC(=O)c4ccccc4)c4ccccc4)C(C)=C1C3(C)C)[C@]1(OC(C)=O)CO[C@@H]1C[C@@H]2O [Taxol, reference compound] ?
OUT: 21 nM

###

biological target: SIRT2 recombinant protein (Homo sapiens (Human), UniProt Q8IXJ6); assay: In vitro activity screening of SIRT2 inhibitors (fluorogenic Ac-Gln-Pro-Lys-[Lys-(Ac)]-AMC peptide deacetylation assay); details: recombinant SIRT2 1.0 μg, 500 μM NAD+, 50 μM substrate peptide, 37° C. 2 hours
pIC50: −log10 of the molar value.
Give condition met when the value for pIC50 is at least 6. Give condition not met when it is less.

For orientation, consider the following solved cases.
IN: pIC50 >= 6 for O=C(Nc1ccnc(S(=O)(=O)Nc2ccc(-c3ccccc3)cc2)c1)c1cccc2ccc(=O)oc12 ?
OUT: condition met

IN: pIC50 >= 6 for O=C(Nc1ccnc(S(=O)(=O)Nc2ccc(Cl)c(Br)c2)c1)c1cccc2ccc(=O)oc12 ?
OUT: condition met

IN: pIC50 >= 6 for COc1ccc(NS(=O)(=O)c2cc(NC(=O)c3cccc4ccc(=O)oc34)ccn2)cc1 ?
OUT: condition not met

IN: pIC50 >= 6 for O=C(Nc1ccnc(S(=O)(=O)Nc2cc(Cl)cc3ccccc23)c1)c1cccc2ccc(=O)oc12 ?
OUT: condition met

Others:
IN: pIC50 >= 6 for O=C(Nc1ccnc(S(=O)(=O)Nc2ccc(C(F)(F)F)cc2)c1)c1cccc2ccc(=O)oc12 ?
OUT: condition met
